Optimal dose (dose producing best therapeutic response) values by entry
Tested on: IP-Implanted L1210 Leukemia
assay remarks: Dose-response against IP-implanted L1210 leukemia, IP treatment Days 1, 5 and 9, 30-day test (Table 2)
Type: in vivo, CD2Fl male mice
condition info: day 1, 5 and 9 schedule
Could you give me the number in mg/kg/injection? Just the number is fine.

Use the examples below as a reference point.
1) [Cl][Pt]1([Cl])([Cl])([Cl])[NH]C2CCCCC2[NH]1 (stereo not drawn) [trans (d, l)] ... 8
2) [Cl][Pt-2]1([Cl])([Cl])([Cl])[NH2+][C@H]2CCCC[C@@H]2[NH2+]1 [trans (d)] ... 8
3) [Cl][Pt-2]1([Cl])([Cl])([Cl])[NH2+][C@@H]2CCCC[C@H]2[NH2+]1 [trans (l)] ... 8

Lab note: next molecule to report on.
In: Give its Optimal dose (dose producing best therapeutic response) value. Item: N.N.[Cl][Pt][Cl] [Cisplatin, cis-diamminedichloroplatinum (II), reference compound]
Out: 20
